For each of the binders below, state its pKd.
Molecular target: T1, GFP-9S library array, motif 4 ND D124S (synthetic construct, D124S)
T1 chain: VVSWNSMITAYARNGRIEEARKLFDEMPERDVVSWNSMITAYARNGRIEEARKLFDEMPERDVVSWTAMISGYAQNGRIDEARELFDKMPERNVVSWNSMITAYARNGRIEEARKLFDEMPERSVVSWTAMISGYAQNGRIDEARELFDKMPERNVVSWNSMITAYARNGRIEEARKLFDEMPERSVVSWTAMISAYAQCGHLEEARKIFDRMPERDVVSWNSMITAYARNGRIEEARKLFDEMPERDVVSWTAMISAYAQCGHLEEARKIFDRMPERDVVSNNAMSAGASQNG
Test: high-throughput RNA pulldown from lysate on Ni-NTA beads; HRP: 50 mM Tris pH 8, 150 mM NaCl, 1 mM beta-mercaptoethanol, 50 ug/ml BSA, 3 ug/ml yeast RNA, 0.5% heparin; ITC and FP: Tris pH 8, 200 mM KCl, 5% glycerol; MST: 50 mM Tris pH 8, 200 mM NaCl, 1 mM DTT, BSA, heparin, 0.05% Tween 20
Settings: tags: N-terminal His-eGFP; label: 5' IRDye 800CW
Give bare numbers, as −log10 of the molar value.

AUUAAACGUGA (ssRNA) [IR-rpoA-A] = 6.79

Could you now look at the following binder, please?
Output pKd of AUUAUACGUGA (ssRNA) [IR-rpoA-U] 8.30
